# Lookup of reported log10 of IC50 keyed by entry
Target: human 3β-HSD1
Sequence (P14060 2-373 limits assumed): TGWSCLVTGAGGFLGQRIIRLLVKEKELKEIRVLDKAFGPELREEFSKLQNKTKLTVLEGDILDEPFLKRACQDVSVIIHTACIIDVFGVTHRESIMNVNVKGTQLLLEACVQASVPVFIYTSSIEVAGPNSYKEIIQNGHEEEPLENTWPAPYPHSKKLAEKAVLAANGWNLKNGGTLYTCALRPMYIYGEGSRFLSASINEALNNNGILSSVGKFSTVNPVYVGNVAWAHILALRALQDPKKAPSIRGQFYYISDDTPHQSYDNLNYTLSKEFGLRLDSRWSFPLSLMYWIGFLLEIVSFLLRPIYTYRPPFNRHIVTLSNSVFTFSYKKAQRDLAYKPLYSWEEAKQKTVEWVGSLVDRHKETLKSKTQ
Experiment: 3β-HSD1 inhibition, colorimetric NADH detection assay
Type: biochemical
Details: purified recombinant human 3β-HSD1, 50 μM DHEA, 2 mM NAD+, 1 hour, room temperature, duplicate 10-point CRC; read-out: IC50 (nM), in vitro NADH inhibition
Result type: log10 of IC50 (log10 of the value in nM)

>>> df
                                    compound  reported_measurement
 0  O=C1c2ccc(-c3cc(F)c(O)c(F)c3)nc2CCC1CC1CC1 (stereo not shown) [Compound 29]                  2.11
 1  CC1(C)Cc2nc(-c3cc(F)c(O)c(F)c3)ccc2C1=O [Compound 72]                  2.34
 2  Cc1cc(-c2ccc3c(n2)CCC(C)(C)C3=O)cc(Cl)c1O [Compound 78]                  3.34
 3  CN1CC(C)(C)C(=O)c2ccc(-c3cc(F)c(O)c(F)c3)nc21 [Compound 68]                  2.49
 4  CC1(CO)CCc2nc(-c3cc(F)c(O)c(F)c3)ccc2C1=O (stereo not shown) [Compound 52]                  2.35
 5  CC1(C)CCc2nc(-c3cc(F)c(O)c(C#N)c3)ccc2C1=O [Compound 67]                  3.27
 6  O=C1CCCCc2nc(-c3cc(F)c(O)c(F)c3)ccc21 [Compound 32]                  1.95
 7  O=C1c2ccc(-c3cc(F)c(O)c(F)c3)nc2CCC1(F)F [Compound 41]                  1.90
 8  O=C1CCCc2nc(-c3c(F)c(F)c(O)c(F)c3F)ccc21 [Compound 28]                  3.48
 9  Oc1c(F)cc(-c2ccc3c(n2)CCCC3OC2COC2)cc1F (stereo not shown) [Compound 77]                  3.03
10  CN(C)CC1(C)CCc2nc(-c3cc(F)c(O)c(F)c3)ccc2C1=O (stereo not shown) [Compound 60]                  3.07
11  O=C1c2ccc(-c3cc(F)c(O)c(F)c3)nc2CCC1Cc1ccncc1 (stereo not shown) [Compound 40]                  2.33
12  CC1(C)CCc2nc(-c3ccc(O)c(F)c3)ccc2C1=O [Compound 6]                  1.71

Where these numbers come from: patent US20250241905A1
